Biological target: T1, HIS-tagged human NKG2D (human, UniProt P26718 73-216, limits assumed)
T1 construct: Captured on HIS1K biosensors; not shown: HIS tag
T1 sequence (looked up): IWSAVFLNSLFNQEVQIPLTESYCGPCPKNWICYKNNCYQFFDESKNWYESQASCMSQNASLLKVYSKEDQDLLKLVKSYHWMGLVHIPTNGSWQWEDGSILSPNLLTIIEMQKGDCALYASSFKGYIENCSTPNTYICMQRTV
Assay: Octet (BLI): His-tagged human NKG2D captured on HIS1K biosensors, dipped into 100 nM bivalent mAb
What kon was measured for each of the following?

What does the record list as kon for XENP27608 (antibody, human IgG1, kappa, V domains shown, humanized bivalent anti-NKG2D mAb, IgG1 with ablation variants; also called mAb C[NKG2D]_H1L2_IgG1_PVA_/S267K) VH: EVQLVESGGGLVQPGGSLRLSCAVSGFSLTIYGVHWVRQAPGKGLEWVSVIWSGGSTDYNAKVKGRFTISKDNSKRTVYLQMNSLRAEDTAVYYCSRKSHDGYYGVMDYWGQGTTVTVSS VL: DIQLTQSPSSLSASVGDRVTITCRASQSIGTSIHWYQQKPGKSPKLLIKYASESISGIPSRFSGSGSGTDFTLTISSLQPEDFATYYCQQSNTWPLTFGAGTKVEIKR ?
832000 M⁻¹ s⁻¹

What does the record list as kon for XENP27594 (antibody, V domains shown, bivalent anti-NKG2D mAb, IgG1 with ablation variants; also called mAb E[NKG2D]_H1L1_IgG1_PVA_/S267K) VH: EVQLVESGGGLVKPGGSLRLSCAASGFTFSSYSMNWVRQAPGKGLEWVSSITSSSSYIYYADSVKGRFTISRDNAKNSLYLQMNSLRAEDTAVYYCARDRRYFDWFPLDYRGQGTLVTVSS VL: DIQMTQSPSSLSASVGDRVTITCRASQGISSWLAWYQQKPEKAPKSLIYAASSLQSGVPSRFSGSGSGTDFTLTISSLQPEDFATYYCQQYNGYPYTFGQGTKLEIKR ?
1.13e+06 M⁻¹ s⁻¹

What does the record list as kon for XENP27604 (antibody, human IgG1, kappa, V domains shown, humanized bivalent anti-NKG2D mAb, IgG1 with ablation variants; also called mAb B[NKG2D]_H3L1_IgG1_PVA_/S267K) VH: EVQLVESGGGLVQPGGSLRLSCAASGYTFTSYWMNWVRQAPGKGLVWVSRIDPYDSETHYNQKVKGRFTISVDKAKSTAYLQMNSLRAEDTAVYYCAKMGDYSFDYWGQGTLVTVSS VL: DIQLTQSPSSLSASVGDRVTITCRASGNIHNYLAWYQQKPGKSPKVLVYNAKTLADGVPSRFSGSGSGTDYTLTISSLQPEDFATYYCQHFWSTTWTFGGGTKVEIKR ?
1.91e+06 M⁻¹ s⁻¹
